pKi: −log10 of the molar value.
Kindly find below pKi information for Fatty-acid amide hydrolase 1 (Mus musculus) taken from the literature.
Rule: pKi of 8 or more gives Y; anything lower gives N.

Does pKi meet or surpass 8 for CCCCCCCC/C=C\CCCCCCCC(=O)c1ncc(-c2ccccn2)o1 ? N

Next record, please: CCCCCCCC/C=C\CCCCCCCC(=O)c1nnco1 N

Next record, please: O=C(CCCCCc1ccccc1)c1nnc(-c2cccnc2)o1 Y

Next record, please: Fc1ccc(OCCCCOc2cccc(N3CCNCC3)c2)cc1 N

Next record, please: O=C(CCCCCc1ccccc1)C(F)(F)F N

Next record, please: CCCCCCCCCC(=O)C(F)(F)F N

Next record, please: NC(=O)c1ccn(-c2cccc(NC(=O)NCCN3CCN(c4ccccc4)CC3)c2)c1 N

Next record, please: O=C(CCCCCc1ccccc1)c1nc2ncccc2o1 Y

Next record, please: NC(=O)c1ccn(-c2cccc(N3CCN(C(=O)NCCCCCCc4ccccc4)CC3)c2)c1 N

Next record, please: Cc1cccnc1NC(=O)C(C)c1ccc(Nc2ccnc(C(F)(F)F)c2)cc1 (stereo not given) N

Next record, please: O=C(NCCCCCCc1ccccc1)N1CCN(c2cccc(-n3cccc3)c2)CC1 N

Next record, please: O=C(CCCCCCc1ccccc1)c1nnc(-c2cccnc2)o1 Y

Next record, please: O=C(CCCCCCCc1ccccc1)c1nnc(-c2ccco2)o1 Y

Next record, please: N#Cc1ccn(-c2cccc(N3CCN(CCCCCCc4ccccc4)CC3)c2)c1 N
